Attribution: the C3SDB collision cross section collection

Assignment: determine reported collision cross section (N2) for the given compounds.
# conditions: [M+Na]+; instrument: DT; stepped-field
Give bare numbers, in Å².

Illustrative cases are given below, each with its answer.
- mol.smiles: "CCCCCCCCCCCCC=CC[C@@H](O)[C@H](COP(=O)([O-])OCC[N+](C)(C)C)NC(=O)CCCCCCCCCCCCCCCCCCCCCCCC"
  result.type: "collision cross section (N2)"
  reading: 304.16
- mol.smiles: "CCCCCCCCCCCCCCCCCCCC(=O)OC[C@H](COP(=O)([O-])OCC[N+](C)(C)C)OC(=O)CCCCCCCCCCC"
  result.type: "collision cross section (N2)"
  reading: 280.56
- mol.smiles: "CCCCC/C=C\\C/C=C\\CCCCCCCCCCCC(=O)O[C@H](COC(=O)CCCCCCCCCCCCCCCCCCC)COP(=O)(O)OC[C@H](N)C(=O)O"
  result.type: "collision cross section (N2)"
  reading: 302

For every item below, please supply its collision cross section (N2).
1. CCCCCC/C=C\CCCCCCCC(=O)O[C@H](COCCCCCCCCCCCCCCCCCC)COP(=O)(O)OCCN
2. CCCCC/C=C\C/C=C\CCCCCCCC(=O)O[C@H](COCCCCCCCCCCCCCCCCCC)COP(=O)(O)OCCN
3. CCCCCCCCCCCCC=CC[C@@H](O)[C@H](COP(=O)([O-])OCC[N+](C)(C)C)NC(=O)CC=CCCCCCCCCCCCCCCCCCCCCC
4. CCCCC/C=C\C/C=C\C/C=C\CCCCC(=O)OC[C@H](COP(=O)(O)OC[C@H](N)C(=O)O)OC(=O)CCCCCCCCC/C=C\CCCCCCCCCC

## Output
275.79
280.37
303.6
295.22
